- measured target: α4β7 integrin interaction with MadCAM-1 (RPMI8866 cells) (Homo sapiens, UniProt P13612+P26010)
- Construct: α4β7 integrin expressing cells; endogenous in cells
- assay overview: α4β7 Integrin Cell Capture Assay
- condition set: capture of α4β7 integrin expressing RPMI8866 cells on recombinant MadCAM-1 extracellular domain-coated plate; 0.5 mM MnCl2
readout name: EC50 (nM)

> print(dat)
                              sample.smiles  readout.name  experimental.value
1  Cc1nc(C)n(C)c(=O)c1-c1ccc(C[C@H](NC(=O)c2c(F)cc(N3CCOC[C@@H]3C(F)(F)F)cc2F)C(=O)O)c2c1COC2          EC50               0.282

(A) Cc1cc(N2CCOC[C@@H]2C(F)(F)F)cc(F)c1C(=O)N[C@@H](Cc1ccc(-c2c(C)c(C)c(C)n(C)c2=O)c2c1CCCO2)C(=O)O
(B) Cn1c(=O)c(-c2ccc(C[C@H](NC(=O)c3c(F)cccc3F)C(=O)O)c3c2OCCO3)cc2ccccc21
*Q* Which is greater in EC50, the first item A or the second item B ? Refer to your chosen entry by its label in the reply.
*A* B

====

- measured target: α4β7 integrin interaction with MadCAM-1 (RPMI8866 cells) (Homo sapiens, UniProt P13612+P26010)
- Construct: α4β7 integrin expressing cells; endogenous in cells
- assay overview: α4β7 Integrin Cell Capture Assay
- condition set: capture of α4β7 integrin expressing RPMI8866 cells on recombinant MadCAM-1 extracellular domain-coated plate; 0.5 mM MnCl2
pEC50: −log10 of the molar value.
readout name: pEC50

(A) COc1cc(F)c(F)cc1-c1ccc(C[C@H](NC(=O)c2c(Cl)cccc2Cl)C(=O)O)c2c1OCCC2
(B) Cc1cc(N2CCOC[C@@H]2C(F)(F)F)cc(F)c1C(=O)N[C@@H](Cc1ccc(-c2c(C)cc(C)n(C)c2=O)c2c1CCCO2)C(=O)O
*Q* Which is greater in pEC50, the first item A or the second item B ? Refer to your chosen entry by its label in the reply.
*A* B

====

- measured target: α4β7 integrin interaction with MadCAM-1 (RPMI8866 cells) (Homo sapiens, UniProt P13612+P26010)
- Construct: α4β7 integrin expressing cells; endogenous in cells
- Sequence (P13612 34-1032): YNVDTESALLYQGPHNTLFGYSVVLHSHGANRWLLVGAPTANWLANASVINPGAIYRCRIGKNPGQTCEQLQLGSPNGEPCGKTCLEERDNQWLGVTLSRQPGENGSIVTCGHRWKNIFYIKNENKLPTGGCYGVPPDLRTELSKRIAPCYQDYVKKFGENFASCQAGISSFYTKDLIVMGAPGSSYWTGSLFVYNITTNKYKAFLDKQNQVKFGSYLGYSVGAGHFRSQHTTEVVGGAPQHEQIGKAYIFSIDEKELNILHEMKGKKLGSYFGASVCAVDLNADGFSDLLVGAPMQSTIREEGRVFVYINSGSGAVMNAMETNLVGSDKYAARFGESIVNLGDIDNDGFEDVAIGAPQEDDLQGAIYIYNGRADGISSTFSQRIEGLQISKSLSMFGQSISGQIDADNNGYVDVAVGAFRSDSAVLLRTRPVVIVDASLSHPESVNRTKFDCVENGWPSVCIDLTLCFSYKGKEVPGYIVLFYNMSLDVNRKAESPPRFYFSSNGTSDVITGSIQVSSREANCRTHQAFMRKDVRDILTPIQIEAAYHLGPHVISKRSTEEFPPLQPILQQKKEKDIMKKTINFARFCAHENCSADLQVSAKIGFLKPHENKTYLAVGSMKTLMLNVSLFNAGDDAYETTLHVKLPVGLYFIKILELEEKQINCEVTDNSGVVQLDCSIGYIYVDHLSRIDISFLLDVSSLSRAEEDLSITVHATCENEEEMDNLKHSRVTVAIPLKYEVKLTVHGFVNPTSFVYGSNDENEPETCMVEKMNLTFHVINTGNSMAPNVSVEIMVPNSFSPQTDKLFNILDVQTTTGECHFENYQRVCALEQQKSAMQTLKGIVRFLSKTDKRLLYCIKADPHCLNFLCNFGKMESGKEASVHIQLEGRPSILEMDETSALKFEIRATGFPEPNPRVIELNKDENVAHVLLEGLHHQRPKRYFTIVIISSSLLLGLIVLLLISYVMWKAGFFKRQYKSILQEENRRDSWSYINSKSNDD
- Sequence (P26010 20-798): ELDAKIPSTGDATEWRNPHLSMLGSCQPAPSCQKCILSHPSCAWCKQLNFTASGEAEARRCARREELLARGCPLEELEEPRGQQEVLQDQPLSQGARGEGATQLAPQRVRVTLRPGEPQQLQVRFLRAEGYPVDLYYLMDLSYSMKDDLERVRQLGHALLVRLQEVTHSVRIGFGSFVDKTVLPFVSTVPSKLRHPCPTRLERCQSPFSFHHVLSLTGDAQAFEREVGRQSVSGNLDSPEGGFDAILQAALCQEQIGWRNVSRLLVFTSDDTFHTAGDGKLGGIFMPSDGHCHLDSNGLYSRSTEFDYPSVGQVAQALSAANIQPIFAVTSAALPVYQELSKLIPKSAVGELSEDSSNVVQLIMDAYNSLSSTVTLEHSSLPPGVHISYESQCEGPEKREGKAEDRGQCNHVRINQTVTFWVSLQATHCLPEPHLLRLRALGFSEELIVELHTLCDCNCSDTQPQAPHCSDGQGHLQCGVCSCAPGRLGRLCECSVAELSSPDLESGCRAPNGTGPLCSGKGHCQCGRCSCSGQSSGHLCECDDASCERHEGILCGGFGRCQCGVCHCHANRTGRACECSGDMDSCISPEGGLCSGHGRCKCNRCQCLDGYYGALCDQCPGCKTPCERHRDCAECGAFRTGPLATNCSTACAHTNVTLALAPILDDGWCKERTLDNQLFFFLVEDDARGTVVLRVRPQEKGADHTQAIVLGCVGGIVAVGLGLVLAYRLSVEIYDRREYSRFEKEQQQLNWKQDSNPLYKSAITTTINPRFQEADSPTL
- assay overview: α4β7 Integrin Cell Capture Assay
- condition set: capture of α4β7 integrin expressing RPMI8866 cells on recombinant MadCAM-1 extracellular domain-coated plate; 0.5 mM MnCl2
readout name: EC50 (nM)

compound	unit tag	experimental value
Cc1c(-c2ccc(C[C@H](NC(=O)c3c(F)cccc3F)C(=O)O)c3c2COC3)c(=O)n(C)c(=O)n1C	nM	5.22
Cc1cc(N2CCOC[C@@H]2C(F)(F)F)cc(F)c1C(=O)N[C@@H](Cc1ccc(-c2c(C)c(C(F)(F)F)cn(C)c2=O)c2c1COC2)C(=O)O	nM	0.41
Cc1cc(C(F)(F)F)c(-c2ccc(C[C@H](NC(=O)c3c(F)cc(N[C@H](C)C(F)(F)F)cc3F)C(=O)O)c3c2OCCC3)c(=O)n1C (single isomer, unassigned) [Example 41]	nM	0.594
O=C(N[C@@H](Cc1ccc(-c2ncc3ccccc3c2Br)c2c1CCCO2)C(=O)O)c1c(Cl)cccc1Cl	nM	7.99
Cc1c(-c2ccc(C[C@H](NC(=O)c3c(F)cccc3F)C(=O)O)c3c2OCCC3)c(=O)n(C)c2ccccc12 [Example 57]	nM	4.19

(I) CC[C@@H](Nc1cc(F)c(C(=O)N[C@@H](Cc2ccc(-c3c(C)cc(C)n(C)c3=O)c3c2COC3)C(=O)O)c(F)c1)C(F)(F)F
(II) Cn1nc(-c2ccc(C[C@H](NC(=O)c3c(Cl)cccc3Cl)C(=O)O)c3c2OCCC3)c2ccccc21
*Q* Which is greater in EC50, the first item I or the second item II ? Refer to your chosen entry by its label in the reply.
*A* II
(II: 158 nM, I: 1.35 nM)

====

- measured target: α4β7 integrin interaction with MadCAM-1 (RPMI8866 cells) (Homo sapiens, UniProt P13612+P26010)
- Construct: α4β7 integrin expressing cells; endogenous in cells
- Sequence (P13612 34-1032): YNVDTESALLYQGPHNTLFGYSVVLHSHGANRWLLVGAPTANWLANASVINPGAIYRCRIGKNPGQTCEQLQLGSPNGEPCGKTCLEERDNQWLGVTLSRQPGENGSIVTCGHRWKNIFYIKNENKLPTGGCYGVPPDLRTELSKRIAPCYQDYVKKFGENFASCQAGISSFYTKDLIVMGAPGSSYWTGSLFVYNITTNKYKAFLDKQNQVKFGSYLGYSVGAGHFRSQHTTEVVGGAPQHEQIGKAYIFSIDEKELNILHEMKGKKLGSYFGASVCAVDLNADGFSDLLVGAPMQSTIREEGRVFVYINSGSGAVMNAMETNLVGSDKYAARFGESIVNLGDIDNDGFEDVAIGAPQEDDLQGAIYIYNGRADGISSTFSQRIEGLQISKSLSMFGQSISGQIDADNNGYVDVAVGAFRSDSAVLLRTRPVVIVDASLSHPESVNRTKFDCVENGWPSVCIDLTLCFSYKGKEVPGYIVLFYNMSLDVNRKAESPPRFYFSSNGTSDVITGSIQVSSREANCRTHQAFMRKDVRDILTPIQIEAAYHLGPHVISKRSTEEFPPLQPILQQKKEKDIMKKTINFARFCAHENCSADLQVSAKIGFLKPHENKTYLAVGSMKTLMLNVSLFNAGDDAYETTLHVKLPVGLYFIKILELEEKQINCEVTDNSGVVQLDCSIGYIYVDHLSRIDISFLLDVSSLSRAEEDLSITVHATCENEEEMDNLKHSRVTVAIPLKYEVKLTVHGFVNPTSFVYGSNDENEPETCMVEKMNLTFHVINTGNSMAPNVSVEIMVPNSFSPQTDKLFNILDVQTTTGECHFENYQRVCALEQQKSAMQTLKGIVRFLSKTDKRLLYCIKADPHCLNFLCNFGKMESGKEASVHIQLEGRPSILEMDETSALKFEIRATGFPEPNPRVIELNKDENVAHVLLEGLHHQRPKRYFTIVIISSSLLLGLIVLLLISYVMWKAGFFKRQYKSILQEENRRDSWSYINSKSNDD
- Sequence (P26010 20-798): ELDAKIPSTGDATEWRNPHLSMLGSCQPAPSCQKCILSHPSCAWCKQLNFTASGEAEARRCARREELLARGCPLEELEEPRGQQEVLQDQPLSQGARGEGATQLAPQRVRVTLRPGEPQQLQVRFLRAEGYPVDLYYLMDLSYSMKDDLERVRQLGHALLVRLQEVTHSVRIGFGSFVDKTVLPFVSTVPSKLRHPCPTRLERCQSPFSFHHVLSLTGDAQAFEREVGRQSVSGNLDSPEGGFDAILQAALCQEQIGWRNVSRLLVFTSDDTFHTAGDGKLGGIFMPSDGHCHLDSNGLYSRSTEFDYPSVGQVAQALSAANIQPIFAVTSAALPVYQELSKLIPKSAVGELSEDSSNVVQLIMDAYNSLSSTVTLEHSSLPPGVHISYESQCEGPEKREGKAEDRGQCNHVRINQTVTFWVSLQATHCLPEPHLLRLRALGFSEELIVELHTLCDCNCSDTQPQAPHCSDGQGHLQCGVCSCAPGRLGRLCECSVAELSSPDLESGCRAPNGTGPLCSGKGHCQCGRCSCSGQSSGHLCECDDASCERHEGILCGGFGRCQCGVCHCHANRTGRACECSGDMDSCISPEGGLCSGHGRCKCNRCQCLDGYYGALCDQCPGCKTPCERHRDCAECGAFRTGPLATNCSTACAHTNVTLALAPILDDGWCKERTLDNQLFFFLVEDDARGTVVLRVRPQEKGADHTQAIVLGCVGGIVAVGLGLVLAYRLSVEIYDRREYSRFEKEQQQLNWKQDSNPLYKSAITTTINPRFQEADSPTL
- assay overview: α4β7 Integrin Cell Capture Assay
- condition set: capture of α4β7 integrin expressing RPMI8866 cells on recombinant MadCAM-1 extracellular domain-coated plate; 0.5 mM MnCl2
readout name: EC50 (nM)

A selection of reference data follows.
> print(dat)
                                   compound  unit.tag  experimental.value
1  Cc1c(-c2ccc(C[C@H](NC(=O)c3c(Cl)cccc3Cl)C(=O)O)c3c2OCCC3)c(=O)n(C)c2ccccc12 (single isomer, unassigned) [Example 61]        nM                2.29
2  N#Cc1ccc(-c2ccc(C[C@H](NC(=O)c3c(F)cccc3F)C(=O)O)c3c2OCCC3)c(Cl)c1        nM                53.3
3  O=C(N[C@@H](Cc1ccc(-c2ncc3ccccc3c2C(F)(F)F)c2c1OCCO2)C(=O)O)c1c(F)cccc1F        nM                13.9

(P) Cc1nc(-c2ccc(C[C@H](NC(=O)c3c(F)cc(N4CCC(F)(F)C[C@H]4C(F)(F)F)cc3F)C(=O)O)c3c2OCCC3)c(=O)n(C)c1C
(Q) CC[C@@H](Nc1cc(F)c(C(=O)N[C@@H](Cc2ccc(-c3nc(C)c(C)n(C)c3=O)c3c2CCCO3)C(=O)O)c(F)c1F)C(F)(F)F
(R) Cc1cc(C)n(C)c(=O)c1-c1ccc(C[C@H](NC(=O)c2c(F)cc(N[C@H](C)C(F)(F)F)cc2F)C(=O)O)c2c1COC2
*Q* List items by EC50 in falling order. Order the labels as requested and give them as your answer.
*A* P, R, Q

(I) Cc1nc(-c2ccc(C[C@H](NC(=O)c3c(F)cc(N4CCCC[C@@H]4C(F)(F)F)cc3F)C(=O)O)c3c2OCCC3)c(=O)n(C)c1C
(II) Cc1nc(-c2ccc(C[C@H](NC(=O)c3c(F)cccc3F)C(=O)O)c3c2OCCO3)c(C(F)(F)F)c2ccccc12
(III) CCc1nc(-c2ccc(C[C@H](NC(=O)c3c(F)cccc3F)C(=O)O)c3c2OCCO3)c(C(F)(F)F)c2ccccc12
(IV) O=C(N[C@@H](Cc1ccc(-c2c(Cl)cc(F)cc2Cl)c2c1[C@H]1C[C@H]1CO2)C(=O)O)c1c(F)cccc1F (single isomer, unassigned)
*Q* Order by EC50, ascending. Order the labels as requested and give them as your answer.
*A* I, II, III, IV

(A) Cc1cc(N2CCOC[C@@H]2C(F)(F)F)cc(F)c1C(=O)N[C@@H](Cc1ccc(-c2c(N3CCC3)cc(C)n(C)c2=O)c2c1CCCO2)C(=O)O
(B) Cc1c(-c2ccc(C[C@H](NC(=O)c3c(F)cccc3F)C(=O)O)c3c2CCOC3)c(=O)n(C)c2ccc(F)cc12
*Q* Could you determine which record has the numerically smaller EC50? Candidates: A and B Refer to your chosen entry by its label in the reply.
*A* A
(A: 0.714 nM, B: 1.96 nM)
